Test system: phosphorylated γH2A.X and TP53BP1
Assay: DNA damage marker analysis (immuno-staining)
Details: Homo sapiens, WI-38, 24 h, read-out: Experiment 2, H2A.X-P DNA damage foci staining (under H2O2 stress treatment), at 10 uM
Recorded measurements of activity at 10 µM, one per entry
Quick reminder: number only, in %, skip the unit.

*Q* Look up activity at 10 µM: CC1C(=O)C(C)C(c2cc(Cl)ccc2O)NC1c1cc(Cl)ccc1O (centres unmarked) [O6]
*A* 130

*Q* Look up activity at 10 µM: CCc1ccccc1NC(=O)c1ccc([N+](=O)[O-])o1 [Gr-1C]
*A* 178

*Q* Look up activity at 10 µM: COC(=O)CCc1sc2c(c1[N+](=O)[O-])NC(=O)CCC2 [O20]
*A* 178

*Q* Look up activity at 10 µM: COc1ccc(C(=O)/C=C/c2ccccc2Br)c(OC)c1 [Gr-4B]
*A* 150

*Q* Look up activity at 10 µM: O=C(Nc1nc(C23CC4CC(CC(C4)C2)C3)cs1)C(c1ccccc1)c1ccccc1 [O10]
*A* 153

*Q* Look up activity at 10 µM: Nc1ccccc1S(=O)(=O)Nc1cccc2cccnc12 [Gr-3C]
*A* 136

*Q* Look up activity at 10 µM: CC(C)(C)c1ccc(OCC(=O)Nc2ccc3c4c(cccc24)C(=O)NC3=O)cc1 [O22]
*A* 210

*Q* Look up activity at 10 µM: N=C1S/C(=C\c2cn(-c3ccccc3)nc2-c2cccs2)C(=O)N1c1nccs1 [Gr-6C]
*A* 43

*Q* Look up activity at 10 µM: O=C(Nc1ccc(Cl)c(Cl)c1)c1ccc([N+](=O)[O-])o1 [Gr-1G]
*A* 63.3

*Q* Look up activity at 10 µM: COc1cccc(/C=C2\CN(C)C/C(=C\c3cccc(OC)c3OC)C2=O)c1OC [O23]
*A* 33.4

*Q* Look up activity at 10 µM: Cc1cc(C)c(C(=O)/C=C/c2ccccc2F)c(O)n1 [O18]
*A* 137

*Q* Look up activity at 10 µM: CCc1ccc(Oc2nc3ccccn3c(=O)c2/C=C(\C#N)C(=O)NCc2ccco2)cc1 [Gr-5B]
*A* 168

*Q* Look up activity at 10 µM: O=C(NCc1cccnc1)/C(=C\c1ccc(Br)cc1)S(=O)(=O)c1ccccc1 [Gr-7B]
*A* 74

*Q* Look up activity at 10 µM: O=C(NCc1cccnc1)/C(=C/c1ccc(-c2ccc(Cl)cc2)o1)S(=O)(=O)c1ccccc1 [Gr-7C]
*A* 82.9

*Q* Look up activity at 10 µM: COc1ccc(/C=C2\SC(=N)N(c3nccs3)C2=O)cc1 [O21]
*A* 127

*Q* Look up activity at 10 µM: COc1ccc(C(=O)/C=C/c2ccc(F)cc2)c(OC)c1 [Gr-4A]
*A* 105

*Q* Look up activity at 10 µM: CNC(=O)/C(C#N)=C/c1c(Oc2ccc(C(C)(C)C)cc2)nc2ccccn2c1=O [Gr-5D]
*A* 112

---

System: FOXO3
Assay: qPCR analysis of FOXO3-regulated genes
Type: cell-based, human
Conditions: Homo sapiens, 24 h; Assay 10(m); at 10 uM, qPCR; read-out: Induction of FOXO3-regulated genes: CAT normalized fold-change
reported-endpoint: fold induction at 10 µM
Lab note: record just the number, no unit beside it.

Completed entries (count: 3):
INSERT INTO results (compound, reported_endpoint, measured_value) VALUES
  ('O=C(NCc1cccnc1)/C(=C/c1ccc(-c2ccc(Cl)cc2)o1)S(=O)(=O)c1ccccc1 [Gr-7C]', 'fold induction at 10 µM', 1.43),
  ('COc1ccc(C(=O)/C=C/c2ccc(F)cc2)c(OC)c1 [Gr-4A]', 'fold induction at 10 µM', 1.26),
  ('O=C(Nc1ccc(Cl)c(Cl)c1)c1ccc([N+](=O)[O-])o1 [Gr-1G]', 'fold induction at 10 µM', 1.35);

Consider now this further compound.
*Q* Write down the reported fold induction at 10 µM of O=C(Nc1cccc(C(F)(F)F)c1)c1ccc([N+](=O)[O-])o1 [Gr-1E] , test system: FOXO3.
*A* 1.38
